experiment: in vitro; assay type: in vitro ADME, human; settings: Caco-2, Papp B-A avg
Starred links: 1 amine or outer side, 2 acyl side, 3 side chain; linkers in the order of their positions; H or OH if unused. Non-standard residues stand in square brackets, D forms with d. Residues, ends and D or L forms follow the SMILES beside them. X1 = CC(C)C[C@H](NC(=S)[C@H](Cc1ccc(O)cc1)N[*:1])C(=O)[*:2]; X2 = CC(C)C[C@H](NC(=S)[C@@H](CC(C)C)N[*:1])C(=O)[*:2]; X3 = CC(C)C[C@H](N[*:1])C(=S)N[C@H](CC(C)C)C(=O)[*:2]; X4 = CC(C)C[C@H](N[*:1])C(=S)N1CCC[C@@H]1C(=O)[*:2]

- compound: "CC(C)C[C@@H]1NC(=O)[C@@H](CC(C)C)NC(=O)[C@H](CC(C)C)NC(=S)[C@H](Cc2ccc(O)cc2)NC(=O)[C@H]2CCCN2C(=O)[C@H](CC(C)C)NC1=O [10e] (cyclo(LL[dP][X1][dL]))"
  Papp B→A (×10⁻⁶ cm/s): 37.6
- compound: "CC(C)C[C@@H]1NC(=O)[C@H](Cc2ccc(O)cc2)NC(=O)[C@H]2CCCN2C(=S)[C@H](CC(C)C)NC(=O)[C@H](CC(C)C)NC(=O)[C@@H](CC(C)C)NC1=O [10c] (cyclo(L[dL]L[X4]Y))"
  Papp B→A (×10⁻⁶ cm/s): 5.26
- compound: "CC(C)C[C@@H]1NC(=O)[C@@H](CC(C)C)NC(=S)[C@H](CC(C)C)NC(=O)[C@H](Cc2ccc(O)cc2)NC(=O)[C@H]2CCCN2C(=O)[C@H](CC(C)C)NC1=O [10f] (cyclo(LL[dP]Y[X3]))"
  Papp B→A (×10⁻⁶ cm/s): 41.8
- compound: "CC(C)C[C@@H]1NC(=O)[C@H](Cc2ccc(O)cc2)NC(=O)[C@H]2CCCN2C(=O)[C@H](CC(C)C)NC(=O)[C@H](CC(C)C)NC(=S)[C@@H](CC(C)C)NC1=O [10a] (cyclo(L[dP]YL[X2]))"
  Papp B→A (×10⁻⁶ cm/s): 75.4

###

test: in vitro; conditions: both, human, plasma
Non-standard residues stand in square brackets, D forms with d. Residues, ends and D or L forms follow the SMILES beside them. NMeY = CN[C@@H](Cc1ccc(O)cc1)C(=O)O; NMeL = CN[C@@H](CC(C)C)C(=O)O; dNMeL = CN[C@H](CC(C)C)C(=O)O
quantity: remaining at 2 h

- compound: "CC(C)C[C@@H]1NC(=O)[C@@H](CC(C)C)N(C)C(=O)[C@H](CC(C)C)NC(=O)[C@H](Cc2ccc(O)cc2)NC(=O)[C@H]2CCCN2C(=O)[C@H](CC(C)C)NC1=O [10g] (cyclo(LL[dP]YL[dNMeL]))"
  value: "92%"
- compound: "CC(C)C[C@@H]1NC(=O)[C@@H](CC(C)C)NC(=O)[C@H](CC(C)C)NC(=O)[C@H](Cc2ccc(O)cc2)N(C)C(=O)[C@H]2CCCN2C(=O)[C@H](CC(C)C)NC1=O [10j] (cyclo(LL[dP][NMeY]L[dL]))"
  value: "75%"
- compound: "CC(C)C[C@@H]1NC(=O)[C@@H](CC(C)C)NC(=O)[C@H](CC(C)C)N(C)C(=O)[C@H](Cc2ccc(O)cc2)NC(=O)[C@H]2CCCN2C(=O)[C@H](CC(C)C)NC1=O [10k] (cyclo(LL[dP]Y[NMeL][dL]))"
  value: "82%"
- compound: "CC(C)C[C@@H]1NC(=O)[C@H](Cc2ccc(O)cc2)NC(=O)[C@H]2CCCN2C(=O)[C@H](CC(C)C)N(C)C(=O)[C@H](CC(C)C)NC(=O)[C@@H](CC(C)C)NC1=O [10i] (cyclo(L[NMeL][dP]YL[dL]))"
  value: "92%"
- compound: "CC(C)C[C@@H]1NC(=O)[C@H](Cc2ccc(O)cc2)NC(=O)[C@H]2CCCN2C(=O)[C@H](CC(C)C)NC(=O)[C@H](CC(C)C)N(C)C(=O)[C@@H](CC(C)C)NC1=O [10h] (cyclo(L[dL][NMeL]L[dP]Y))"
  value: "89%"
